- assay_comment: Inhibition of HCV genotype 1b Con1 NS5A expressed in HuH7 cell infected HCV genotype 2a assessed as decrease in viral replication after 3 days by luciferase reporter gene assay
experimental_readout: pEC50
Just so you know, pEC50 here is -log10 of the concentration in molar units; reply with that number alone.

Recorded pEC50, per entry:
INSERT INTO assay_data (entry_smiles, measured) VALUES
  ('COC(=O)N[C@H](C(=O)N1CCC[C@H]1c1nc2cc(F)c([C@H]3CC[C@H](c4cc5[nH]c([C@@H]6CCCN6C(=O)[C@@H](NC(=O)OC)C6CCOCC6)nc5cc4F)N3c3cc(F)c(N4CCC(c5ccc(F)cc5)CC4)c(F)c3)cc2[nH]1)C1CCOCC1', 11.10),
  ('COC(=O)N[C@H](C(=O)N1CCC[C@H]1c1nc2ccc([C@H]3CC[C@H](c4ccc5nc([C@@H]6CCCN6C(=O)[C@@H](NC(=O)OC)C(C)C)[nH]c5c4)N3c3cc(Cl)c(N4CCCCC4)c(Cl)c3)cc2[nH]1)C(C)C', 10.36);

# input Reported pEC50, compound COC(=O)N[C@H](C(=O)N1CCC[C@H]1c1nc2ccc([C@H]3CC[C@H](c4ccc5nc([C@@H]6CCCN6C(=O)[C@@H](NC(=O)OC)C(C)C)[nH]c5c4)N3c3ccc(F)cc3)cc2[nH]1)C(C)C : ____
# output 10.55

# input Tell me the measured pEC50 of COC(=O)N[C@H](C(=O)N1CCC[C@H]1c1nc2cc(F)c([C@H]3CC[C@H](c4cc5[nH]c([C@@H]6CCCN6C(=O)[C@@H](NC(=O)OC)C6CCOCC6)nc5cc4F)N3c3cc(F)c(N4CCC(c5ccccc5)CC4)c(F)c3)cc2[nH]1)C1CCOCC1 , please.
# output 11.05
